# System: serotonin-2 receptor
# assay_overview: Anti-serotonin action (anti-5-HT action): contraction of isolated superior mesenteric artery induced by serotonin
# test_context: test drug 10^−6 M; contraction induced by 10^−5 M serotonin (5-HT) taken as 100%; Hartley male guinea pig superior mesenteric artery
Provide the reported Anti 5-HT action (% of Control) 10^−6 M of each item.

Sample answers from the record:
chemical_smiles	system_name	Anti 5-HT action (% of Control) 10^−6 M
COc1ccc2c(c1)C1(CN(CCCN3CCN(c4ccc(F)cc4)CC3)S2(=O)=O)OCCO1	serotonin-2 receptor	14.1 % of Control
O=S1(=O)c2ccccc2C2(CN1CCCN1CCN(c3ccccn3)CC1)OCCO2	serotonin-2 receptor	5.5 % of Control
O=S1(=O)c2ccccc2C2(CN1CCCN1CCN(c3ccc(F)cc3)CC1)OCCO2	serotonin-2 receptor	3.3 % of Control

Continue with the molecule presented below.
Input: Tell us which Anti 5-HT action (% of Control) 10^−6 M value is on record for COC1=CN(CCCN2CCN(c3ccc(F)cc3)CC2)S(=O)(=O)c2ccccc21
Output: 16.9 % of Control
